target: PAK6 (human); assay: radiometric filter-binding kinase assay; settings: compound 10.0 µM
reported.endpoint: residual activity (%)

molecule.smiles	reading
CCNc1nc(Nc2cc(F)c(C(=O)N3CCOCC3)cc2OC)ncc1C(F)(F)F	93
c1ccc2c(-c3cnn4cc(-c5ccc(N6CCNCC6)cc5)cnc34)ccnc2c1	100
CCc1cncnc1N1CCN(Cc2nc3cc(C(F)(F)F)ccc3[nH]2)CC1	86
O=C(O)c1ccc(-c2c[nH]c3ncc(-c4ccccc4)cc23)cc1C1CCCC1	61
CN1C(=O)[C@@H](Cc2c[nH]c3ccccc23)NC1=S	99
O=C1NC(=S)N[C@@H]1Cc1c[nH]c2ccccc12	98
NC(=O)c1cc(-c2ccnc(NC3CCCCC3)c2)nc(N2CCNCC2)c1	81

====

target: BRSK2 (human) (UniProt Q8IWQ3); assay: radiometric filter-binding kinase assay; settings: compound 1.0 µM
Sequence (Q8IWQ3 whole entry, looked up): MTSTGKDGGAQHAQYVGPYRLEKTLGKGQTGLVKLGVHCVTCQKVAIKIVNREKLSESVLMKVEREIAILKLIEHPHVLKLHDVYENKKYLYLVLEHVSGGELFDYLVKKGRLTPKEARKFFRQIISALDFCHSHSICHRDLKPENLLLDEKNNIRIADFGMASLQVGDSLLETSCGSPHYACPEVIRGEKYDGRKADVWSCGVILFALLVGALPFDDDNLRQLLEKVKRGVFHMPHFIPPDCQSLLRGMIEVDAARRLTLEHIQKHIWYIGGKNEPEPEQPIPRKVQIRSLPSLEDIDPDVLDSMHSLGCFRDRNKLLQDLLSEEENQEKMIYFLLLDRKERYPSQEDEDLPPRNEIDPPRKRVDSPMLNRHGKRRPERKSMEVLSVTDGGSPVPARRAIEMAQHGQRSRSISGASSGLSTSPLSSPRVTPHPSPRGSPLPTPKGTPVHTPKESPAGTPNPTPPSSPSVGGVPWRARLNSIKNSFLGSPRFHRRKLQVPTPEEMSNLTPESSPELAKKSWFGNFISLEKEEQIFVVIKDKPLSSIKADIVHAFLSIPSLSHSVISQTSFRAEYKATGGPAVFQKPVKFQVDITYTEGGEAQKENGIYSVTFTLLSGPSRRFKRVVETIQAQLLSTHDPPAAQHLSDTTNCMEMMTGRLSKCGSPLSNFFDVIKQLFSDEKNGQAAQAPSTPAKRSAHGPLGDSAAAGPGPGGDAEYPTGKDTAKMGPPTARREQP
reported.endpoint: residual activity (%)

compound	reported.endpoint	reading
O=C(O)c1ccc(-c2c[nH]c3ncc(-c4ccccc4)cc23)cc1C1CCCC1	residual activity	61
CCn1c(-c2nonc2N)nc2cncc(CNC3CCNCC3)c21	residual activity	89
NC1(c2ccc(-c3nc4ccn5c(=O)[nH]nc5c4cc3-c3ccccc3)cc2)CCC1	residual activity	88
NC(=O)c1ccc(-c2ccc(Oc3cncc4sc(-c5nn[nH]n5)cc34)cc2)cc1	residual activity	92
C[C@H]1CCCC(=O)CCC/C=C/c2cc(O)cc(O)c2C(=O)O1	residual activity	54
NC(=O)c1c(NC(=O)C2CC2)sc2c1CCCC2	residual activity	99
O=C1Nc2nc(-c3c(O)cccc3OCC3CC3)cc(C3CCCNC3)c2CO1 (stereo not drawn)	residual activity	89
O=C(N[C@@H](COc1ccc2[nH]c(=O)[nH]c2c1)c1ccccc1)c1cccn(Cc2ccc(F)c(F)c2)c1=O	residual activity	90
N#Cc1c(C2CCNCC2)cc(-c2c(O)cccc2OCC2CC2)nc1N	residual activity	92
O=C(NCCCNc1nc(Nc2cccc(CN3CCOCC3)c2)ncc1C1CC1)C1CCC1	residual activity	75
CCc1cncnc1N1CCN(Cc2nc3cc(C(F)(F)F)ccc3[nH]2)CC1	residual activity	84
O=C(NOC[C@H](O)CO)c1ccc(F)c(F)c1Nc1ccc(I)cc1Cl	residual activity	94
CN(C)C/C=C/C(=O)Nc1cccc(C(=O)Nc2ccc(Nc3nccc(-c4cccnc4)n3)cc2)c1	residual activity	76

====

biological target: EPHB4 (human) (UniProt P54760); assay: radiometric filter-binding kinase assay; settings: compound 0.1 µM
Sequence (P54760 whole entry, looked up): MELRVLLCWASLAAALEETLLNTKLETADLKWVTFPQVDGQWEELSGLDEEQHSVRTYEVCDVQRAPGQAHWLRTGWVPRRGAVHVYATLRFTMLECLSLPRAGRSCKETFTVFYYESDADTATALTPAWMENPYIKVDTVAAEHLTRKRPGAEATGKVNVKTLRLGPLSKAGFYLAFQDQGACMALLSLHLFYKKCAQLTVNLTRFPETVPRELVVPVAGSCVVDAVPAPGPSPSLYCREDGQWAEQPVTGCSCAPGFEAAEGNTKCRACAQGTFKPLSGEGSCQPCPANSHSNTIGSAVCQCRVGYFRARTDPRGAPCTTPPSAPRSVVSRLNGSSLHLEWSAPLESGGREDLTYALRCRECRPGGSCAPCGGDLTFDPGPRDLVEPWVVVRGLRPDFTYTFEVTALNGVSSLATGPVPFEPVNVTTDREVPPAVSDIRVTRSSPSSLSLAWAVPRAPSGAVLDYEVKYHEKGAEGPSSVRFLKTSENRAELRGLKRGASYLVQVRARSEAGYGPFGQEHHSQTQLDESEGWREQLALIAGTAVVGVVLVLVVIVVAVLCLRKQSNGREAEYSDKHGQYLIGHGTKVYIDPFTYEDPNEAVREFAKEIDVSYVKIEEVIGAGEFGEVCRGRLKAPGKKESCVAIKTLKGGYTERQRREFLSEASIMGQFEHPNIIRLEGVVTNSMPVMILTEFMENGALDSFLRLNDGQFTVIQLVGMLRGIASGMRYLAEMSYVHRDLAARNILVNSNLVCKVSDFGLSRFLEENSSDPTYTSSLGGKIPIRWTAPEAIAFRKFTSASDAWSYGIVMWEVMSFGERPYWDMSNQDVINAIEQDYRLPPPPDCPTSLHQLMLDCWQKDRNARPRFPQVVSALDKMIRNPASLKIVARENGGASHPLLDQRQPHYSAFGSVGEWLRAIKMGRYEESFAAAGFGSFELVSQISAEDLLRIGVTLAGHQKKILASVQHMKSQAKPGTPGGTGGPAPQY
reported.endpoint: residual activity (%)

compound	reading
CN1CCN(CCOc2cc(OC3CCOCC3)c3c(Nc4c(Cl)ccc5c4OCO5)ncnc3c2)CC1	76
CC1=C(CO)C(=O)O[C@@H]([C@@H](C)[C@H]2CC[C@H]3[C@@H]4C[C@H]5O[C@]56[C@@H](O)C=CC(=O)[C@]6(C)C4CC[C@]23C)C1 (stereo partly drawn)	120
NC(=O)c1cc2c(-c3cccc(-c4ccccc4)c3)cnc(N)c2s1	107

====

molecular target: MAPK9 (human); assay: radiometric filter-binding kinase assay; conditions: compound 1.0 µM
reported.endpoint: residual activity (%)

compound	reported.endpoint	reading
O=C(Nc1ccccc1-c1cn2c(CN3CCNCC3)csc2n1)c1cnc2ccccc2n1	residual activity	93
COc1cc(O)c2c(c1)[C@H]1OC1C[C@H](O)[C@H](O)C(=O)/C=C\C[C@H](C)OC2=O (some centres undefined)	residual activity	99
COc1cc(O)c2c(c1)/C=C/C[C@H](O)[C@H](O)C(=O)/C=C\C[C@H](C)OC2=O	residual activity	81
CNc1nc(-c2ccc3c(N)n[nH]c3c2)cc(N2C[C@@H](C(=O)NC3CCCCC3)CC[C@H]2C)n1	residual activity	104

====

target: GSK3B (human) (UniProt P49841); assay: radiometric filter-binding kinase assay; conditions: compound 0.01 µM
Sequence (P49841 whole entry, looked up): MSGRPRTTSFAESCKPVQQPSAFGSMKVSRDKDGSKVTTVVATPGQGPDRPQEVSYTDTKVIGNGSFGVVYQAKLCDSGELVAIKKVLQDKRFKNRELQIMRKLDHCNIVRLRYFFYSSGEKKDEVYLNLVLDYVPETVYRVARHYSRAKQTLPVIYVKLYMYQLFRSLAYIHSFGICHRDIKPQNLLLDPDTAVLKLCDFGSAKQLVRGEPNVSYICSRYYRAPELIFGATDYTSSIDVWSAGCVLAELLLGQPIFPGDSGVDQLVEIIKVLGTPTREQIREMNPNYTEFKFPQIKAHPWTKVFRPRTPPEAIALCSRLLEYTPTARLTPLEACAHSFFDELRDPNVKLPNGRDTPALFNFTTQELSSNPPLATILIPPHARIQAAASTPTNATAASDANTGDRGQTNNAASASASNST
reported.endpoint: residual activity (%)

molecule.smiles	residual activity (%)
O=C(Nc1nc2cc(C(F)(F)F)cc(NC3CC3)n2n1)c1cccnc1	87
CNc1nc(-c2ccc3c(N)n[nH]c3c2)cc(N2C[C@@H](C(=O)NC3CCCCC3)CC[C@H]2C)n1	108
C/C(=C1/C(=O)Nc2ccc(NC(N)=O)cc21)c1ccc[nH]1	92

====

target: PRKCZ (human) (UniProt Q05513); assay: radiometric filter-binding kinase assay; conditions: compound 1.0 µM
Sequence (Q05513 whole entry, looked up): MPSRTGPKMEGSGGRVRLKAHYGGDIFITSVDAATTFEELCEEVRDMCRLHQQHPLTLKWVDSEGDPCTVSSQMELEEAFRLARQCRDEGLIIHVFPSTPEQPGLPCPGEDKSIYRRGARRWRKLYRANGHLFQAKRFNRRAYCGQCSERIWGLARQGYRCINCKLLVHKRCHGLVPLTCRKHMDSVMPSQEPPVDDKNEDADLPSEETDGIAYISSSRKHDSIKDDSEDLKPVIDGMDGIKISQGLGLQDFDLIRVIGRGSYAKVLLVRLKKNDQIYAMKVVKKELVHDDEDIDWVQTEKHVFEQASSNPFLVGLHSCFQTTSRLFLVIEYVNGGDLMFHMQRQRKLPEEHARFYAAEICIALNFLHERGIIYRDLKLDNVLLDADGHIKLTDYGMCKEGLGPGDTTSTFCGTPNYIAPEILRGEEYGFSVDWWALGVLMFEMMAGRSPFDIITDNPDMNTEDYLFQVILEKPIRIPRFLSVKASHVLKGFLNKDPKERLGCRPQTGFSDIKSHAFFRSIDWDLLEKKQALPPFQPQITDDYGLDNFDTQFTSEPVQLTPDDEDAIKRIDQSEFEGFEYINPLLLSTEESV
reported.endpoint: residual activity (%)

compound	residual activity, %
Cc1nc(-c2ccc(OCC(C)C)c(C#N)c2)sc1C(=O)O	93
CCCCCc1ccc(/C=C/[C@H](O)[C@@H](CO)NC)cc1	108
CCNc1nc(Nc2cc(F)c(C(=O)N3CCOCC3)cc2OC)ncc1C(F)(F)F	99
c1ccc2c(-c3cnn4cc(-c5ccc(N6CCNCC6)cc5)cnc34)ccnc2c1	93
O=C(NCCCNc1nc(Nc2cccc(CN3CCOCC3)c2)ncc1C1CC1)C1CCC1	95
NCC(=O)Nc1ccc(-n2nc(C(F)(F)F)cc2-c2ccc3c(ccc4ccccc43)c2)cc1	94
C=C1C(=O)OC2C1CC/C(C)=C/CCC1(C)OC21 (stereo not given)	117
CNc1nc(-c2ccc3c(N)n[nH]c3c2)cc(N2C[C@@H](C(=O)NC3CCCCC3)CC[C@H]2C)n1	74
CCc1cncnc1N1CCN(Cc2nc3cc(C(F)(F)F)ccc3[nH]2)CC1	75
C=CC(=O)N1CCC[C@@H](n2nc(-c3ccc(Oc4ccccc4)cc3)c3c(N)ncnc32)C1	98
Oc1ccc(/C=C/c2cc(O)cc(O)c2)cc1	128
Cc1ccc(=O)n(-c2ccccc2)c1	109
Cc1ccc(Sc2cnc(Nc3cccc(Br)n3)s2)cc1C(=O)N1CCN(C(=O)CN)CC1	98
Cc1cccc(Nc2nn(C)c3ncnc(N)c23)c1	89
NC1(c2ccc(-c3nc4ccn5c(=O)[nH]nc5c4cc3-c3ccccc3)cc2)CCC1	105
COc1cc(O)c2c(c1)[C@H]1OC1C[C@H](O)[C@H](O)C(=O)/C=C\C[C@H](C)OC2=O (stereo not given in full)	105
O=C(Nc1ccccc1-c1cn2c(CN3CCNCC3)csc2n1)c1cnc2ccccc2n1	105
COc1ccc2c(c1)c1c3c(c4c5ccccc5n(C)c4c1n2CC(O)CN(C)C)C(=O)NC3=O (stereo not given)	74
O=C(NOCC(O)CO)c1ccc(F)c(F)c1Nc1ccc(I)cc1Cl (stereo not given)	89
O=C(N[C@@H](COc1ccc2[nH]c(=O)[nH]c2c1)c1ccccc1)c1cccn(Cc2ccc(F)c(F)c2)c1=O	106
O=C(Nc1nc2cc(C(F)(F)F)cc(NC3CC3)n2n1)c1cccnc1	84
Nc1cccc2c1CN(C1CCC(=O)NC1=O)C2=O (stereo not given)	100
NC(=O)c1cc2c(-c3cccc(-c4ccccc4)c3)cnc(N)c2s1	93
N#Cc1c(C2CCNCC2)cc(-c2c(O)cccc2OCC2CC2)nc1N	88
Cc1cc(NC(=O)c2cccc(NC(=O)/C=C/CN(C)C)c2)ccc1Nc1nccc(-c2cccnc2)n1	89
O=C(NOC[C@H](O)CO)c1ccc(F)c(F)c1Nc1ccc(I)cc1Cl	97
Cc1cc(SCc2sc(-c3ccc(C(F)(F)F)cc3)nc2C)ccc1OCC(=O)O	79
NC(=O)c1ccc(-c2ccc(Oc3cncc4sc(-c5nn[nH]n5)cc34)cc2)cc1	100
COc1cc(C(=O)N2CCOCC2)c(F)cc1Nc1ncc(C(F)(F)F)c(NC2CC2)n1	101
NC(=O)c1c(NC(=O)C2CC2)sc2c1CCCC2	104

====

molecular target: AURKA (human); test: radiometric filter-binding kinase assay; settings: compound 10.0 µM
reported.endpoint: residual activity (%)

molecule	reported.endpoint	reading
CC(C)C[C@H](NC(=O)CNC(=O)c1cc(Cl)ccc1Cl)B1OC(=O)CC(CC(=O)O)(C(=O)O)O1 (stereo partly drawn)	residual activity	105
Cc1ccc2c(c1)C(=O)[C@@]1(O)CCN(c3ccccc3)C1=N2	residual activity	99
Cc1nc(-c2ccc(OCC(C)C)c(C#N)c2)sc1C(=O)O	residual activity	94
CCCCCc1ccc(/C=C/[C@H](O)[C@@H](CO)NC)cc1	residual activity	92
CCOC(=O)c1ccc(N2NC(=O)/C(=C/c3ccc([N+](=O)[O-])o3)C2=O)cc1	residual activity	76
Oc1ccc(/C=C/c2cc(O)cc(O)c2)cc1	residual activity	100
N#Cc1c(O)c2c(-c3ccc(-c4ccccc4O)cc3)csc2[nH]c1=O	residual activity	93
CNc1nc(-c2ccc3c(N)n[nH]c3c2)cc(N2C[C@@H](C(=O)NC3CCCCC3)CC[C@H]2C)n1	residual activity	89

====

target: MARK4 (human); experiment: radiometric filter-binding kinase assay; conditions: compound 0.1 µM
reported.endpoint: residual activity (%)

compound	reading
Cc1ccc(Sc2cnc(Nc3cccc(Br)n3)s2)cc1C(=O)N1CCN(C(=O)CN)CC1	101
CC1=C(CO)C(=O)O[C@@H]([C@@H](C)[C@H]2CC[C@H]3[C@@H]4C[C@H]5O[C@]56[C@@H](O)C=CC(=O)[C@]6(C)C4CC[C@]23C)C1 (stereo not given in full)	87
O=C(Nc1nc2cc(C(F)(F)F)cc(NC3CC3)n2n1)c1cccnc1	111
c1ccc2c(-c3cnn4cc(-c5ccc(N6CCNCC6)cc5)cnc34)ccnc2c1	75
NC(=O)c1cc(-c2ccnc(NC3CCCCC3)c2)nc(N2CCNCC2)c1	87
Cc1cccc(-c2nn(C(=S)Nc3ccccc3)cc2-c2ccnc3ccccc23)n1	98
CNc1nc(-c2ccc3c(N)n[nH]c3c2)cc(N2C[C@@H](C(=O)NC3CCCCC3)CC[C@H]2C)n1	114
CCn1c(-c2nonc2N)nc2cncc(CNC3CCNCC3)c21	91
COc1cc(O)c2c(c1)[C@H]1OC1C[C@H](O)[C@H](O)C(=O)/C=C\C[C@H](C)OC2=O (stereo not given in full)	99
NC1(c2ccc(-c3nc4ccn5c(=O)[nH]nc5c4cc3-c3ccccc3)cc2)CCC1	98
